# conditions: pH 7.4
outcome measure: log k′w

• CN1CC[C@]23c4c5ccc(O)c4O[C@H]2[C@@H](O)C=C[C@H]3[C@H]1C5.O=S(=O)(O)O [Morphine sulfate] = 0.10
• CN1[C@@H]2CC[C@H]1C[C@@H](OC(=O)C(CO)c1ccccc1)C2 (stereo partly shown) [Atropine] = −0.33
• CN1C(=O)CN=C(c2ccccc2)c2cc(Cl)ccc21 [Diazepam] = 2.46
• CN1CCCC1c1cccnc1 (stereo not shown) [Nicotine] = 0.02

* * *

# experiment summary: physchem
# conditions: pH 7.4
Rule: chromatographic logD under 0.2 gives no, otherwise yes.

• Nc1nc(N)c2nc(-c3ccccc3)c(N)nc2n1 [Triamterene] = yes
• CC(=O)CCCCn1c(=O)c2c(ncn2C)n(C)c1=O [Pentoxifylline] = yes
• O=C1CN=C(c2ccccn2)c2cc(Br)ccc2N1 [Bromazepam] = yes
• COc1ccc2c3c1O[C@H]1[C@@H](O)C=C[C@H]4[C@@H](C2)N(C)CC[C@@]341 [Codeine] = yes
• CCN(CC)CCNC(=O)c1ccc(N)cc1 [Procainamide] = no

* * *

# experiment summary: physchem
# conditions: pH 7.4
Would you mind sorting the entries by chromatographic logD according to these classes? low range: < 0.5; mid range: ≥ 0.5 and < 1; high range: ≥ 1

* COc1ccc2c(c1)N(C[C@H](C)CN(C)C)c1ccccc1S2 [Methotrimeprazine] | high range
* CNC(=NCCSCc1csc(N=C(N)N)n1)NC#N [Tiotidine] | mid range
* Clc1cccc(Cl)c1N=C1NCCN1 [Clonidine] | low range
* NS(=O)(=O)c1cc(C2(O)NC(=O)c3ccccc32)ccc1Cl (stereo not drawn) [Chlorthalidone] | high range
* COC(=O)[C@H]1[C@@H](OC(=O)c2ccccc2)C[C@@H]2CC[C@H]1N2C [Cocaine] | low range
* C=CCc1ccccc1OCC(O)CNC(C)C (stereo not drawn) [Alprenolol] | mid range
* O=[N+]([O-])c1ccc(/C=N/O)o1 [Nifuroxime] | high range
* C[C@@H]1C[C@H]2[C@@H]3CCC4=CC(=O)C=C[C@]4(C)[C@@]3(F)[C@@H](O)C[C@]2(C)[C@@]1(O)C(=O)CO [Dexamethasone] | high range

* * *

# experiment summary: physchem
# conditions: pH 7.4
Rule: chromatographic logD under 2 gives n, otherwise y.

• N=C(N)NCC1COc2ccccc2O1 (centres unmarked) = n
• CC(C)NCC(O)c1ccc(NS(C)(=O)=O)cc1 (centres unmarked) = n
• CC/C(=C(/CC)c1ccc(O)cc1)c1ccc(O)cc1 = y
• CN1CCCC1c1cccnc1 (centres unmarked) = n
• CNC(=C[N+](=O)[O-])NCCSCc1csc(CN(C)C)n1 = n
• CSc1ccc2c(c1)N(CCC1CCCCN1C)c1ccccc1S2 (centres unmarked) = y
• Oc1ncnc2[nH]ncc12 = n
• C[C@]12C=CC(=O)C=C1CC[C@@H]1[C@@H]2[C@@H](O)C[C@@]2(C)[C@H]1CC[C@]2(O)C(=O)CO = n
• CS(=O)(=O)c1ccc([C@@H](O)[C@@H](CO)NC(=O)C(Cl)Cl)cc1 = n
• Cc1ncc(-c2csc(N=C(N)N)n2)[nH]1 = n
• CN(C)CCCN1c2ccccc2Sc2ccc(Cl)cc21 = y
• Clc1ccccc1C(c1ccccc1)(c1ccccc1)n1ccnc1 = y
• CC(=O)c1ccccc1 = n
• Cc1nc2n(c(=O)c1CCN1CCC(c3noc4cc(F)ccc34)CC1)CCCC2 = n
• COC1=CC(=O)C[C@@H](C)[C@]12Oc1c(Cl)c(OC)cc(OC)c1C2=O = y
• C[C@]12CC[C@@H]3c4ccc(O)cc4CC[C@H]3[C@@H]1CC[C@@H]2O = y
• O=C1Nc2ccc(Cl)cc2C(c2ccccc2Cl)=NC1O (centres unmarked) = y
• C[C@]12C=CC(=O)C=C1CC[C@@H]1[C@@H]2C(=O)C[C@@]2(C)[C@H]1CC[C@]2(O)C(=O)CO = n
• CCOC(=O)C1=C(COCCN)NC(C)=C(C(=O)OC)C1c1ccccc1Cl (centres unmarked) = y
• O=C(CCCN1CCC(O)(c2ccc(Cl)cc2)CC1)c1ccc(F)cc1 = y
